The binders listed here are annotated with their ratio to parent.
Target: T1, full-length RLIM protein (wild type; mapping and mutation co-IPs), Q9NVW2
T1 chain: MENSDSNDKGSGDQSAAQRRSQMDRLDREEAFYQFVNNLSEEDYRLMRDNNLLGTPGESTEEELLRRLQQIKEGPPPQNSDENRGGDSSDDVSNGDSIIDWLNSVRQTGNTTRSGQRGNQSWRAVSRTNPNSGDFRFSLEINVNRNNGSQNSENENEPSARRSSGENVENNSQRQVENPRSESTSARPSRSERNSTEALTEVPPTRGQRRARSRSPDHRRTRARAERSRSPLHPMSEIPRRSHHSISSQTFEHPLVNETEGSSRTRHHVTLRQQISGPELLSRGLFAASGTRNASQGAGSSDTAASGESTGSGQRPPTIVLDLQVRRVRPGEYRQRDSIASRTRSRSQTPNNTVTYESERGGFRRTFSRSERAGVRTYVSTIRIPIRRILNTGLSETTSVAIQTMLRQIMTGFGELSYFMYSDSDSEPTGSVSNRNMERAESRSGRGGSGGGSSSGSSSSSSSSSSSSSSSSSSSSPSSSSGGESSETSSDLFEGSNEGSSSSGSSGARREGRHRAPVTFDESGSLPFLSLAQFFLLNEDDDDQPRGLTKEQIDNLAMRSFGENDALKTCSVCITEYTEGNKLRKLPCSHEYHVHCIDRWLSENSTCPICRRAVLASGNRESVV
Assay: co-IP (IP: FLAG, IB: myc), blot quantification
Details: chain shown with the change; ZC4H2-myc + RLIM-FLAG, MG132 +; parent: 1.00
Provide a numeric answer; units are not to be included.

The recorded ratio to parent for ZC4H2 (wild type; mapping and mutation co-IPs), Q9NQZ6 V63L (protein) MADEQEIMCKLESIKEIRNKTLQMEKIKARLKAEFEALESEERHLKEYKQEMDLLLQEKMAHLEELRLIHADINVMENTIKQSENDLNKLLESTRRLHDEYKPLKEHVDALRMTLGLQRLPDLCEEEEKLSLDYFEKQKAEWQTEPQEPPIPESLAAAAAAAQQLQVARKQDTRQTATFRQQPPPMKACLSCHQQIHRNAPICPLCKAKSRSRNPKKPKRKQDE is 1.2

ratio to parent in this record for ZC4H2 (wild type; mapping and mutation co-IPs), Q9NQZ6 A200V (protein) MADEQEIMCKLESIKEIRNKTLQMEKIKARLKAEFEALESEERHLKEYKQEMDLLLQEKMAHVEELRLIHADINVMENTIKQSENDLNKLLESTRRLHDEYKPLKEHVDALRMTLGLQRLPDLCEEEEKLSLDYFEKQKAEWQTEPQEPPIPESLAAAAAAAQQLQVARKQDTRQTATFRQQPPPMKACLSCHQQIHRNVPICPLCKAKSRSRNPKKPKRKQDE : 0.18

Memo: ZC4H2 (wild type; mapping and mutation co-IPs), Q9NQZ6 R198Q (protein) MADEQEIMCKLESIKEIRNKTLQMEKIKARLKAEFEALESEERHLKEYKQEMDLLLQEKMAHVEELRLIHADINVMENTIKQSENDLNKLLESTRRLHDEYKPLKEHVDALRMTLGLQRLPDLCEEEEKLSLDYFEKQKAEWQTEPQEPPIPESLAAAAAAAQQLQVARKQDTRQTATFRQQPPPMKACLSCHQQIHQNAPICPLCKAKSRSRNPKKPKRKQDE , reported ratio to parent: 0.15

// sample ZC4H2 (wild type; mapping and mutation co-IPs), Q9NQZ6 R213W (protein) MADEQEIMCKLESIKEIRNKTLQMEKIKARLKAEFEALESEERHLKEYKQEMDLLLQEKMAHVEELRLIHADINVMENTIKQSENDLNKLLESTRRLHDEYKPLKEHVDALRMTLGLQRLPDLCEEEEKLSLDYFEKQKAEWQTEPQEPPIPESLAAAAAAAQQLQVARKQDTRQTATFRQQPPPMKACLSCHQQIHRNAPICPLCKAKSRSWNPKKPKRKQDE , its ratio to parent was 0.19
